# Test system: U2OS
# EXPERIMENT_NOTES: Multiplex assay against U2OS
# Format: toxicity, cell-based
# TEST_SETTINGS: human, 24 h, 10 µM, compound concentration 10 uM, replicate 2
MEASUREMENT_LABEL: Population Mitochondria Different-Phenotype (%)
Report as a plain number; the unit % is understood.

Field Population Mitochondria Different-Phenotype (%) (entry Nc1nc2c(c(N3CCNCC3)n1)CCC1=C2[C@@H]2CCCC[C@@H]2O1 ) reads 79

Field Population Mitochondria Different-Phenotype (%) (entry CCOc1cc(N2CCC(O)CC2)ccc1Nc1ncc2c(n1)N(C1CCCC1)CCC(=O)N2C ) reads 24

Field Population Mitochondria Different-Phenotype (%) (entry Nc1ccc(C(=O)Nc2cccc(-c3nc(N4CCOCC4)c4oc5ncccc5c4n3)c2)cn1 ) reads 100

Field Population Mitochondria Different-Phenotype (%) (entry CCc1cc2c(cc1CC)CC(NC[C@H](O)c1ccc(O)c3[nH]c(=O)ccc13)C2 [INDACATEROL] ) reads 100

Please look at the following compound next.
Field Population Mitochondria Different-Phenotype (%) (entry O=C(O)c1ccc2c(c1)nc(Nc1cccc(Cl)c1)c1ccncc12 [SILMITASERTIB] ) reads 41
